Assignment: determine reported growth for the given compounds.
- Tested on: E. coli TESEC Mtb Alr
- procedure details: growth (OD600 after 10 h); higher = more growth (less inhibition)
- settings: arabinose 100 nM; compound 0.1 mM; raw OD600 reference: median of DMSO wells 0.413, cell-free background 0.052
Where a name gives a salt, the structure may show the parent alone.
# output: bare number, no unit

Task: Sample Cn1c(=O)c2c(ncn2C)n(C)c1=O [Caffeine] — what was its growth?
Output: 0.412

Task: Sample O=C(O)COCCN1CCN(C(c2ccccc2)c2ccc(Cl)cc2)CC1 (stereo not drawn) [Cetirizine dihydrochloride] — what was its growth?
Output: 0.41

Task: Sample CCOC(=O)[C@@](C)(N)Cc1ccc(O)c(O)c1 [Methyldopate hydrochloride] — what was its growth?
Output: 0.405

Task: Sample CCOC(=O)[C@H](CCc1ccccc1)N[C@H]1CCc2ccccc2N(CC(=O)O)C1=O [Benazepril HCl] — what was its growth?
Output: 0.0476

Task: Sample NNCCc1ccccc1 [Phenelzine sulfate] — what was its growth?
Output: 0.0532

Task: Sample CN1CCN2c3ncccc3Cc3ccccc3C2C1 (stereo not drawn) [Mirtazapine] — what was its growth?
Output: 0.414

Task: Sample C[C@@H]1C[C@H]2[C@@H]3CCC4=CC(=O)C=C[C@]4(C)[C@@]3(Cl)[C@@H](O)C[C@]2(C)[C@@]1(OC(=O)c1ccco1)C(=O)CCl [Mometasone furoate] — what was its growth?
Output: 0.415

Task: Sample CN(Cc1cnc2nc(N)nc(N)c2n1)c1ccc(C(=O)N[C@@H](CCC(=O)O)C(=O)O)cc1 (racemic) [Amethopterin (R,S)] — what was its growth?
Output: 0.244

Task: Sample OCCOCCN1CCN(C2=Nc3ccccc3Sc3ccccc32)CC1 [Quetiapine hemifumarate] — what was its growth?
Output: 0.396

Task: Sample Cc1cccc(N(C)C(=S)Oc2ccc3ccccc3c2)c1 [Tolnaftate] — what was its growth?
Output: 0.384

Task: Sample COC(=O)C1=C(C)NC(C)=C(C(=O)OC(C)C)C1c1cccc2nonc12 (stereo not drawn) [Isradipine] — what was its growth?
Output: 0.394

Task: Sample Cc1ccc(-c2cc(C(F)(F)F)nn2-c2ccc(S(N)(=O)=O)cc2)cc1 [Celecoxib] — what was its growth?
Output: 0.308

Task: Sample Cc1cccc(Nc2ccccc2C(=O)O)c1C [Mefenamic acid] — what was its growth?
Output: 0.169

====

- Tested on: E. coli TESEC Mtb Asd
- procedure details: growth (OD600 after 10 h); higher = more growth (less inhibition)
- settings: arabinose induction (level): Low; compound 0.1 mM; raw OD600 reference: median of DMSO wells 0.417, cell-free background 0.041
Counter-ions that a name gives are not always drawn.
Assignment: determine reported growth for the given compounds.
# output: bare number, no unit

Task: Sample CCN(CC)CCOCCOC(=O)C1(c2ccccc2)CCCC1 [Carbetapentane citrate] — what was its growth?
Output: 0.294

Task: Sample CCOc1ccccc1OC(c1ccccc1)C1CNCCO1 (stereo not drawn) [Reboxetine mesylate] — what was its growth?
Output: 0.296

Task: Sample CCCOc1ccccc1-c1nc2[nH]nnc2c(=O)[nH]1 [Zaprinast] — what was its growth?
Output: 0.313

Task: Sample CCCCC(CC)CNC(=N)NC(=N)NCCCCCCNC(=N)NC(=N)NCC(CC)CCCC (stereo not drawn) [Alexidine dihydrochloride] — what was its growth?
Output: 0.0584

Task: Sample CCOCCn1c(N2CCCN(C)CC2)nc2ccccc21 [Emedastine] — what was its growth?
Output: 0.328

Task: Sample CC(=O)OCC(=O)NCCCOc1cccc(CN2CCCCC2)c1 [Roxatidine Acetate HCl] — what was its growth?
Output: 0.389

Task: Sample COC(=O)C1=C(C)NC(C)=C(C(=O)OC2CCCN(Cc3ccccc3)C2)C1c1cccc([N+](=O)[O-])c1 (stereo not drawn) [Benidipine hydrochloride] — what was its growth?
Output: 0.157

Task: Sample Cc1cc(NS(=O)(=O)c2ccc(N)cc2)no1 [Sulfamethoxazole] — what was its growth?
Output: 0.41

Task: Sample O=C(N/N=C/c1ccc([N+](=O)[O-])o1)c1ccc(O)cc1 [Nifuroxazide] — what was its growth?
Output: 0.0519

Task: Sample CC(=O)CC(c1ccc([N+](=O)[O-])cc1)c1c(O)c2ccccc2oc1=O (stereo not drawn) [Acenocoumarol] — what was its growth?
Output: 0.293

Task: Sample Fc1ccc(C(c2ccc(F)cc2)N2CCN(C/C=C/c3ccccc3)CC2)cc1 [Flunarizine dihydrochloride] — what was its growth?
Output: 0.056

Task: Sample CCOc1ccc2nc(S(N)(=O)=O)sc2c1 [Ethoxzolamide] — what was its growth?
Output: 0.368

Task: Sample COc1cc2nc(N3CCN(C(=O)C4CCCO4)CC3)nc(N)c2cc1OC (stereo not drawn) [Terazosin hydrochloride] — what was its growth?
Output: 0.431

Task: Sample N=C(N)NC(=O)c1nc(Cl)c(N)nc1N [Amiloride hydrochloride dihydrate] — what was its growth?
Output: 0.428

Task: Sample C[C@H](CCC(=O)O)[C@H]1CC[C@H]2[C@@H]3CC[C@@H]4C[C@H](O)CC[C@]4(C)[C@H]3CC[C@]12C [Lithocholic acid] — what was its growth?
Output: 0.404

Task: Sample O=C1C(=O)c2ccccc2C(O)=C1C1CCC(c2ccc(Cl)cc2)CC1 (stereo not drawn) [Atovaquone] — what was its growth?
Output: 0.23

Task: Sample C[C@@H]1C[C@H]2[C@@H]3C[C@H](F)C4=CC(=O)C=C[C@]4(C)[C@@]3(Cl)[C@@H](O)C[C@]2(C)[C@H]1C(=O)COC(=O)C(C)(C)C [Clocortolone pivalate] — what was its growth?
Output: 0.322

Task: Sample Clc1ccccc1C(c1ccccc1)(c1ccccc1)n1ccnc1 [Clotrimazole] — what was its growth?
Output: 0.0472

====

- Tested on: E. coli TESEC Mtb Alr
- procedure details: growth (OD600 after 10 h); higher = more growth (less inhibition)
- settings: arabinose 1000 nM; compound 0.1 mM; raw OD600 reference: median of DMSO wells 0.294, cell-free background 0.041
Structures can show the parent of a compound that is named as a salt.
measured parameter: growth

Task: API: value(readout= growth, system= E. coli TESEC Mtb Alr, query= CC(C)(C)CC(C)(C)c1ccc(OCCOCC[N+](C)(C)Cc2ccccc2)cc1 [Benzethonium chloride] )
Output: 0.0415

Task: API: value(readout= growth, system= E. coli TESEC Mtb Alr, query= CC(N)C12CC3CC(CC(C3)C1)C2 (stereo not drawn) [Rimantadine Hydrochloride] )
Output: 0.293

Task: API: value(readout= growth, system= E. coli TESEC Mtb Alr, query= CN1CCN(C2=Nc3ccccc3Oc3ccc(Cl)cc32)CC1 [Loxapine succinate] )
Output: 0.182

====

- System: E. coli TESEC Mtb Alr
- procedure details: growth (OD600 after 10 h); higher = more growth (less inhibition)
- settings: arabinose 10000000 nM; compound 0.1 mM; raw OD600 reference: median of DMSO wells 0.146, cell-free background 0.041
Where a name gives a salt, the structure may show the parent alone.
measured parameter: growth

Task: Sample CC(=O)N(CC(C)C(=O)O)c1c(I)cc(I)c(N)c1I (stereo not drawn) [Iocetamic acid] — what was its growth?
Output: 0.144

Task: Sample COC(=O)C1=C(C)NC(C)=C(C(=O)OCC(C)C)C1c1ccccc1[N+](=O)[O-] (stereo not drawn) [Nisoldipine] — what was its growth?
Output: 0.112

Task: Sample Cn1nnc2c(C(N)=O)ncn2c1=O [Temozolomide] — what was its growth?
Output: 0.134

Task: Sample CNC1(C)C2CCC(C2)C1(C)C (stereo not drawn) [Mecamylamine hydrochloride] — what was its growth?
Output: 0.156

Task: Sample CCN1CC(CCN2CCOCC2)C(c2ccccc2)(c2ccccc2)C1=O (stereo not drawn) [Doxapram hydrochloride] — what was its growth?
Output: 0.131

Task: Sample O=C(c1ccccc1)c1ccc2n1CCC2C(=O)O (stereo not drawn) [Ketorolac tromethamine] — what was its growth?
Output: 0.137

Task: Sample CCCc1cc(=O)[nH]c(=S)[nH]1 [Propylthiouracil] — what was its growth?
Output: 0.152

Task: Sample CC(C)NCC(O)c1cc(O)cc(O)c1 (stereo not drawn) [Metaproterenol sulfate, orciprenaline sulfate] — what was its growth?
Output: 0.144

====

- System: E. coli TESEC Mtb Alr
- procedure details: growth (OD600 after 10 h); higher = more growth (less inhibition)
- settings: arabinose 1000 nM; compound 0.1 mM; raw OD600 reference: median of DMSO wells 0.294, cell-free background 0.041
Assignment: determine reported growth for the given molecules.
# output: bare number, no unit

Task: Sample O=C(CCCCCCC(=O)Nc1ccccc1)NO [Vorinostat] — what was its growth?
Output: 0.295

Task: Sample C=C1C(=O)O[C@H]2[C@H]1CC/C(C)=C/CC[C@@]1(C)O[C@@H]21 [Parthenolide] — what was its growth?
Output: 0.303

Task: Sample CCOC(=O)[C@H](CCc1ccccc1)N[C@@H](C)C(=O)N1[C@H](C(=O)O)C[C@@H]2CCC[C@@H]21 [Ramipril] — what was its growth?
Output: 0.292
